Test system: SUM149PT spheroids with HUVEC/MSC, viability
measurementNotes: Anticancer human tumor SUM149PT cell line growth inhibition [GQUAD];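 note: spheroids exposed to drugs for seven days before readout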
testParameters: second compound 0.0316 µM; first compound 3.16 µM; stronger effect = lower value
Label Met when viability, T/C is strictly below 40%; at or above that, label Not met.

compound	categoryLabel
Cc1cccc(N(C)C(=O)C2C(O)CCN2c2nc(C)cc(C(F)(F)F)c2C#N)c1 (configuration not stated) + Cc1cnc(CNC(=O)c2c(=O)c3ccc(N4CCCN(C)CC4)nc3n3c2sc2ccccc23)cn1	Not met
O=C(NO)c1cnc(N2CCN(S(=O)(=O)c3ccc4ccccc4c3)CC2)nc1 + CN(C)c1ccc(Nc2c3ccc(NC(=O)CCN4CCCC4)cc3nc3cc(NC(=O)CCN4CCCC4)ccc23)cc1	Met
COc1cccc2c1C(=O)c1c(O)c3c(c(O)c1C2=O)CC(O)(C(=O)CO)CC3OC1CC(N)C(O)C(C)O1 (configuration not stated) + CN(C)c1ccc(Nc2c3ccc(NC(=O)CCN4CCCC4)cc3nc3cc(NC(=O)CCN4CCCC4)ccc23)cc1	Met
C=CC(=O)N1CCN(c2nc(=O)n(-c3c(C)ccnc3C(C)C)c3nc(-c4c(O)cccc4F)c(F)cc23)C(C)C1 (configuration not stated) + CN(C)c1ccc(Nc2c3ccc(NC(=O)CCN4CCCC4)cc3nc3cc(NC(=O)CCN4CCCC4)ccc23)cc1	Not met
O=c1[nH]cc(F)c(=O)[nH]1 + CN(C)c1ccc(Nc2c3ccc(NC(=O)CCN4CCCC4)cc3nc3cc(NC(=O)CCN4CCCC4)ccc23)cc1	Not met
C=CC(=O)N1CCN(c2nc(=O)n(-c3c(C)ccnc3C(C)C)c3nc(-c4c(O)cccc4F)c(F)cc23)C(C)C1 (configuration not stated) + Cc1cnc(CNC(=O)c2c(=O)c3ccc(N4CCCN(C)CC4)nc3n3c2sc2ccccc23)cn1	Not met
C=CCn1c(=O)c2cnc(Nc3ccc(N4CCN(C)CC4)cc3)nc2n1-c1cccc(C(C)(C)O)n1 + CN(C)c1ccc(Nc2c3ccc(NC(=O)CCN4CCCC4)cc3nc3cc(NC(=O)CCN4CCCC4)ccc23)cc1	Met
COc1ncnc(C2CC2)c1-c1ncc2cnn(Cc3ccc(-c4nc(C(F)(F)F)cn4C(C)C)cc3)c2n1 + Cc1cnc(CNC(=O)c2c(=O)c3ccc(N4CCCN(C)CC4)nc3n3c2sc2ccccc23)cn1	Not met
COc1ccc([C@@H](O)c2cc(-c3ncnc4cc(N5CCOCC5)ccc34)c(F)cc2Cl)nn1 + CN(C)c1ccc(Nc2c3ccc(NC(=O)CCN4CCCC4)cc3nc3cc(NC(=O)CCN4CCCC4)ccc23)cc1	Met
CC1COCCN1c1cc(-c2ccnn2C)c2ccnc(-c3ccn[nH]3)c2n1 (configuration not stated) + Cc1[nH]c2ccc(F)cc2c1-c1nc2c3cccnc3c3ncccc3c2[nH]1	Met
CCCS(=O)(=O)Nc1ccc(F)c(C(=O)c2c[nH]c3ncc(-c4ccc(Cl)cc4)cc23)c1F + Cc1[nH]c2ccc(F)cc2c1-c1nc2c3cccnc3c3ncccc3c2[nH]1	Not met
O=c1[nH]cc(F)c(=O)[nH]1 + Cc1cnc(CNC(=O)c2c(=O)c3ccc(N4CCCN(C)CC4)nc3n3c2sc2ccccc23)cn1	Not met
